// provenance: PubChem BioAssay (NCATS)

Test: qHTS assay for small molecule antagonists of the retinoid-related orphan receptor gamma (ROR-gamma) signaling pathway - cell viability counter screen (AID 720652);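 further: compound exposure lasted 16 hr before ATP read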
Settings: RORgamma reporter cell line viability counter screen; series mostly up to 92.2 µM
Method: National Center for Advancing Translational Sciences [NCATS] NIH Chemical Genomics Center [NCGC] National Institutes of Environmental Health Sciences [NIEHS] National Toxicology Program [NTP] […] The CHO cell-based assay utilizes a TET-inducible ROR expression factor and ROR response element-LUC reporter gene. Reporter activity was induced using doxycycline and measured after 16hr incubation. […]
Inconclusive results are not listed. The source made the active and inactive calls. The call rests on the fitted dose curve; in most records, active means well fitted cell-killing curve with a large enough effect in the repeat runs; inconclusive means weak or mixed curves, or effect the other way; inactive means flat fitted curve, though single readings scatter.
Pick from active, inactive when you respond.

Compound: CCCCC(CC)C(=O)O (stereo not given)
Label value: inactive
--
Compound: Cc1ccccc1Br
Label value: inactive
--
Compound: CCCCC/C=C/C=C/C=O
Label value: active
--
Compound: CCOCC(=O)O
Label value: inactive

Moving on to the next compound.
[ask] Returns: the outcome recorded for CC(C)(c1cc(Br)c(OCC(Br)CBr)c(Br)c1)c1cc(Br)c(OCC(Br)CBr)c(Br)c1 (stereo not given) in this assay.
[reply] inactive

----------
target: Androgen receptor (Homo sapiens); assay: qHTS assay for small molecule agonists of androgen receptor signaling (AID 588515); details: AR-UAS-bla HEK293, beta-lactamase ratio, agonist 16 h; active compounds read high; further: on the % scale 0 is the no-effect control and ±100 the full control effect
Results filed as inconclusive are left out.
// reported activation for each item listed
Express the result in % but write the number alone.

Molecule: CC(C)c1ccccc1
Observed property: activation
Value observed: -0.119
//
Molecule: CCCOCC(C)O (stereo not drawn)
Observed property: activation
Value observed: -4.67
//
Molecule: CNC(=O)N(c1ccccc1)c1ccccc1
Observed property: activation
Value observed: -11.4
//
Molecule: Nc1cccc(S(=O)(=O)O)c1
Observed property: activation
Value observed: 6.82
//
Molecule: O=C(Cl)c1ccccc1[N+](=O)[O-]
Observed property: activation
Value observed: 6.98
//
Molecule: c1ccc2c(c1)ccc1ncccc12
Observed property: activation
Value observed: 7.08
//
Molecule: Nc1ccc(F)cc1F
Observed property: activation
Value observed: 18.9

[ask] Param item = CC(=O)C1(C)CC2=C(CCCC2(C)C)CC1C (stereo not drawn) ; retrieve measured activation.
[reply] -4.48

----------
assay: MultiTox-Fluor Cytotoxicity Assay - LYMP1-003 - Dead Cells (AID 961); details: LYMP1-003 lymphoblastoid cells, dead-cell protease fluorescence; series mostly up to 92.2 µM;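 further: cells exposed to compound for 16 h at 37 °C; 0% = DMSO and 100% = tetraoctylammonium bromide; nearly all actives have a fitted effect of over 70% in size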
Active and inactive are the calls of the source. Calls follow the shape of the dose curve; as a rule, active = well fitted cell-killing curve with a large enough effect; inconclusive = small, poorly fitted or top-dose-only effect, or effect the other way; inactive = flat fitted curve, though single readings scatter.
Observed property: outcome

Molecule: C=CCOC(=O)COCCC(C)C
outcome: inactive

Molecule: CC(=O)c1ccccn1
outcome: inactive

Molecule: O=C1OC(=O)c2c(Br)c(Br)c(Br)c(Br)c21
outcome: inactive

Molecule: CCCCCCCN
outcome: inactive

[ask] Param item = O=Cc1c(Cl)cccc1Cl ; retrieve measured outcome.
[reply] inactive

[ask] Param item = Cc1ccc2c(c1[N+](=O)[O-])C(=O)c1ccccc1C2=O ; retrieve measured outcome.
[reply] inactive

[ask] Param item = C=CCOC(=O)CCCCCCCC ; retrieve measured outcome.
[reply] inactive

----------
test: Cell Viability - LYMP2-022 (AID 987); conditions: LYMP2-022 lymphoblastoid cell viability; series mostly up to 92.2 µM;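 further: cells exposed to compound for 24 hr; 0% = DMSO alone and full effect = tetraoctylammonium bromide at 92 µM; nearly all actives have a fitted effect of over 55% in size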
Inconclusive results are not listed. Active and inactive are the calls of the source. Calls come from the whole dose curve; as a rule, active = well fitted cell-killing curve with a large enough effect; inconclusive = small, poorly fitted or top-dose-only effect; inactive = flat fitted curve, though single readings scatter.

Compound structure: COc1cccc2sc(N)nc12
outcome: inactive

Compound structure: Cc1c(N)cccc1[N+](=O)[O-]
outcome: inactive

Compound structure: CC=O
outcome: inactive
